Documented Activity across a set of molecules
Tested on: Medicago sativa
Experiment: Pre-emergence herbicidal activity against Medicago sativa (alfalfa) at 1500 g/ha after 10 days
Type: functional

- structureSmiles: "CCOCCOC(=O)/C(C#N)=C(\\NCc1ccc(OCc2cnc(Cl)s2)cc1)C(C)C"
  Activity, %: 0
- structureSmiles: "CCOCCOC(=O)/C(C#N)=C(\\NCc1ccc(OCc2cnc(Cl)s2)c(OC)c1)C(C)C"
  Activity, %: 0
- structureSmiles: "CC/C(NCc1ccc(OCc2cnc(Cl)s2)cc1)=C(\\C#N)C(=O)OCCOC"
  Activity, %: 0
- structureSmiles: "CCOCCOC(=O)/C(C#N)=C(\\NCc1ccc(Cl)nc1)SC"
  Activity, %: 0
- structureSmiles: "CCOCCOC(=O)/C(C#N)=C(\\NCc1ccc(OCc2cnc(Cl)s2)c(OC)c1)SC"
  Activity, %: 10
- structureSmiles: "COCCOC(=O)/C(C#N)=C(\\NCc1ccc(OCc2cnc(Cl)s2)c(OC)c1)C(C)C"
  Activity, %: 42.9
- structureSmiles: "COCCOC(=O)/C(C#N)=C(\\NCc1ccc(OCc2cnc(Cl)s2)cc1)C(C)C"
  Activity, %: 0
- structureSmiles: "COCCOC(=O)/C(C#N)=C(/C)NCc1ccc(OCc2cnc(Cl)s2)c(OC)c1"
  Activity, %: 0
- structureSmiles: "CCOCCOC(=O)/C(C#N)=C(/C)NCc1ccc(OCc2cnc(Cl)s2)cc1"
  Activity, %: 0
- structureSmiles: "CCOCCOC(=O)/C(C#N)=C(\\NCc1ccc(OCc2cnc(Cl)s2)cc1)SC"
  Activity, %: 0
- structureSmiles: "CC/C(NCc1ccc(OCc2cnc(Cl)s2)c(OC)c1)=C(\\C#N)C(=O)OCCOC"
  Activity, %: 2
- structureSmiles: "CCOCCOC(=O)/C(C#N)=C(/CC)NCc1ccc(OCc2cnc(Cl)s2)c(OC)c1"
  Activity, %: 0
- structureSmiles: "CCOCCOC(=O)/C(C#N)=C(/C)NCc1ccc(OCc2cnc(Cl)s2)c(OC)c1"
  Activity, %: 30.6
- structureSmiles: "COCCOC(=O)/C(C#N)=C(\\NCc1ccc(OCc2cnc(Cl)s2)cc1)SC"
  Activity, %: 0
- structureSmiles: "COCCOC(=O)/C(C#N)=C(\\NCc1ccc(OCc2cnc(Cl)s2)c(OC)c1)SC"
  Activity, %: 50.6
- structureSmiles: "CCOCCOC(=O)/C(C#N)=C(/CC)NCc1ccc(OCc2cnc(Cl)s2)cc1"
  Activity, %: 0
- structureSmiles: "COCCOC(=O)/C(C#N)=C(/C)NCc1ccc(OCc2cnc(Cl)s2)cc1"
  Activity, %: 0
